- Tested on: bloodstream forms of T. brucei clone 427-221a
- Protocol description: Trypanocidal assay, resazurin viability assay
- Assay type: cell-based, Trypanosoma brucei
- Protocol conditions: ratio of cytotoxic (HL-60) to trypanocidal (T. brucei) activity
For each record, write down the corresponding Selectivity GI50 Ratio.
# answer = number (no unit)

What value of Selectivity GI50 Ratio has been reported for the following compound? COC(CCn1cnc2c(N(C)C)ncnc21)[C]12[CH]3[CH]4[CH]5[CH]1[Mn]4532.[C-]#[O+].[C-]#[O+].[C-]#[O+] (racemic)
3.6

What value of Selectivity GI50 Ratio has been reported for the following compound? Nc1ncnc2c1ncn2CCC(O)[C]12[CH]3[CH]4[CH]5[CH]1[Mn]4532[P](c1ccccc1)(c1ccccc1)c1ccccc1.[C-]#[O+].[C-]#[O+] (racemic)
9.1

What value of Selectivity GI50 Ratio has been reported for the following compound? O=c1[nH]c(=O)n(CCC(O)[C]23[CH]4[CH]5[CH]6[CH]2[Mn]5643[P](c2ccccc2)(c2ccccc2)c2ccccc2)cc1F.[C-]#[O+].[C-]#[O+] (racemic)
7.2

What value of Selectivity GI50 Ratio has been reported for the following compound? O=C(CCn1cc(F)c(=O)[nH]c1=O)[C]12[CH]3[CH]4[CH]5[CH]1[Mn]4532.[C-]#[O+].[C-]#[O+].[C-]#[O+] (stereo not shown)
11.0

====

- Tested on: MCF-7/DX (estrogen-responsive breast adenocarcinoma resistant to doxorubicin)
- Protocol description: cells
- Assay type: cell-based, human
- Protocol conditions: 24 h incubation, MTT; means ± SEM; read-out: cytotoxicity IC50, MCF-7/DX
Assay metric: pIC50
Hey, just a heads up that pIC50 is the negative log base 10 of the concentration in molar.

// lookup pIC50 | system=MCF-7/DX (estrogen-responsive breast adenocarcinoma resistant to doxorubicin) | key= O=[C]=[Mn](=[C]=O)(=[C]=O)[CH]1C=CC=C1 [CymH, reference compound]
3.84

// lookup pIC50 | system=MCF-7/DX (estrogen-responsive breast adenocarcinoma resistant to doxorubicin) | key= O=c1[nH]c(=O)n(CCC(O)[C]23[CH]4[CH]5[CH]6[CH]2[Mn]5643[P](c2ccccc2)(c2ccccc2)c2ccccc2)cc1F.[C-]#[O+].[C-]#[O+] (racemic)
4.40

====

- Tested on: HepG2 (hepatocellular carcinoma)
- Protocol description: MTT cytotoxicity assay, HepG2
- Assay type: cell-based, human
Assay metric: IC50 (µM)
# unit: µM | format: bare number

What value of IC50 has been reported for the following compound? O=C(CCn1cc(F)c(=O)[nH]c1=O)[C]12[CH]3[CH]4[CH]5[CH]1[Mn]4532.[C-]#[O+].[C-]#[O+].[C-]#[O+] (stereo not shown) [Compound 1]
114

What value of IC50 has been reported for the following compound? Nc1ncnc2c1ncn2CCC(O)[C]12[CH]3[CH]4[CH]5[CH]1[Mn]45321[P](c2ccccc2)(c2ccccc2)CC[P]1(c1ccccc1)c1ccccc1.[C-]#[O+] (racemic) [Compound C]
66.6

What value of IC50 has been reported for the following compound? CCC(=O)[C]12[CH]3[CH]4[CH]5[CH]1[Mn]4532.[C-]#[O+].[C-]#[O+].[C-]#[O+] (stereo not shown) [Compound 7, propionylocymantrene]
110

What value of IC50 has been reported for the following compound? COC(CCn1cnc2c(N(C)C)ncnc21)[C]12[CH]3[CH]4[CH]5[CH]1[Mn]4532.[C-]#[O+].[C-]#[O+].[C-]#[O+] (racemic) [Compound 6]
86.9

====

- Test system: A549 (non-small cell lung carcinoma)
- Protocol description: MTT cytotoxicity assay, A549
For each record, write down the corresponding pIC50.
Hey, just a heads up that pIC50 is the negative log base 10 of the concentration in molar.

What value of pIC50 has been reported for the following compound? Nc1ncnc2c1ncn2CCC(O)[C]12[CH]3[CH]4[CH]5[CH]1[Mn]45321[P](c2ccccc2)(c2ccccc2)CC[P]1(c1ccccc1)c1ccccc1.[C-]#[O+] (racemic)
4.78

What value of pIC50 has been reported for the following compound? CCC(=O)[C]12[CH]3[CH]4[CH]5[CH]1[Mn]4532.[C-]#[O+].[C-]#[O+].[C-]#[O+] (stereo not drawn)
4.51

What value of pIC50 has been reported for the following compound? O=C(CCn1cc(F)c(=O)[nH]c1=O)[C]12[CH]3[CH]4[CH]5[CH]1[Mn]4532.[C-]#[O+].[C-]#[O+].[C-]#[O+] (stereo not drawn)
4.60

What value of pIC50 has been reported for the following compound? COC(CCn1cnc2c(N(C)C)ncnc21)[C]12[CH]3[CH]4[CH]5[CH]1[Mn]4532.[C-]#[O+].[C-]#[O+].[C-]#[O+] (racemic)
3.99

====

- System: SKOV-3 cells
- Protocol description: Apoptotic/necrotic cell death, Hoechst 33258/propidium iodide staining, fluorescence microscopy
- Format: cell-based, human
- Protocol conditions: SKOV-3, IC50 concentrations
Assay metric: apoptotic cell fraction predominantly increased

Nc1ncnc2c1ncn2CCC(O)[C]12[CH]3[CH]4[CH]5[CH]1[Mn]45321[P](c2ccccc2)(c2ccccc2)CC[P]1(c1ccccc1)c1ccccc1.[C-]#[O+] (racemic)    early apoptotic cells
Nc1ncnc2c1ncn2CCC(O)[C]12[CH]3[CH]4[CH]5[CH]1[Mn]4532[P](c1ccccc1)(c1ccccc1)c1ccccc1.[C-]#[O+].[C-]#[O+] (racemic)    early apoptotic cells

====

For each record, write down the corresponding MIC, S. aureus ATCC 700787 (VISA).
- Test system: S. aureus ATCC 700787 (VISA)
- Protocol description: Antibacterial liquid microdilution (CLSI M07-A8)
- Type: cell-based, Staphylococcus aureus
- Protocol conditions: 18 to 24 h
- Description: Organometallic compounds play an increasingly important role in the search for new antibacterial agents. We, therefore, thought to investigate also the bactericidal activity of the newly synthesized cymantrenes 1–7, compound C and CymH. […]

// lookup MIC, S. aureus ATCC 700787 (VISA) | system=S. aureus ATCC 700787 (VISA) | key= O=C(CCn1cc(F)c(=O)[nH]c1=O)[C]12[CH]3[CH]4[CH]5[CH]1[Mn]4532.[C-]#[O+].[C-]#[O+].[C-]#[O+] (stereo not shown)
32 µg/mL

// lookup MIC, S. aureus ATCC 700787 (VISA) | system=S. aureus ATCC 700787 (VISA) | key= O=[C]=[Mn](=[C]=O)(=[C]=O)[CH]1C=CC=C1 [CymH, reference compound]
>512 µg/mL

// lookup MIC, S. aureus ATCC 700787 (VISA) | system=S. aureus ATCC 700787 (VISA) | key= O=c1[nH]c(=O)n(CCC(O)[C]23[CH]4[CH]5[CH]6[CH]2[Mn]5643)cc1F.[C-]#[O+].[C-]#[O+].[C-]#[O+] (racemic)
>512 µg/mL

// lookup MIC, S. aureus ATCC 700787 (VISA) | system=S. aureus ATCC 700787 (VISA) | key= O=c1[nH]c(=O)n(CCC(O)[C]23[CH]4[CH]5[CH]6[CH]2[Mn]5643[P](c2ccccc2)(c2ccccc2)c2ccccc2)cc1F.[C-]#[O+].[C-]#[O+] (racemic)
>256 µg/mL

====

- System: human myeloid leukemia HL-60 cells
- Protocol description: in vitro
Assay metric: GI50

What value of GI50 has been reported for the following molecule? COC(CCn1cc(F)c(=O)n(C)c1=O)[C]12[CH]3[CH]4[CH]5[CH]1[Mn]4532.[C-]#[O+].[C-]#[O+].[C-]#[O+] (racemic)
> 100 µM

What value of GI50 has been reported for the following molecule? COC(CCn1cnc2c(N(C)C)ncnc21)[C]12[CH]3[CH]4[CH]5[CH]1[Mn]4532.[C-]#[O+].[C-]#[O+].[C-]#[O+] (racemic)
95.2 µM

What value of GI50 has been reported for the following molecule? O=c1[nH]c(=O)n(CCC(O)[C]23[CH]4[CH]5[CH]6[CH]2[Mn]5643)cc1F.[C-]#[O+].[C-]#[O+].[C-]#[O+] (racemic)
> 100 µM

What value of GI50 has been reported for the following molecule? O=C(CCn1cc(F)c(=O)[nH]c1=O)[C]12[CH]3[CH]4[CH]5[CH]1[Mn]4532.[C-]#[O+].[C-]#[O+].[C-]#[O+] (stereo not shown)
33.1 µM

====

- Test system: S. aureus ATCC 29213 (MSSA)
- Protocol description: Antibacterial liquid microdilution (CLSI M07-A8)
- Format: cell-based, Staphylococcus aureus
- Protocol conditions: 18 to 24 h
Assay metric: MIC, S. aureus ATCC 29213 (MSSA)

What value of MIC, S. aureus ATCC 29213 (MSSA) has been reported for the following molecule? Nc1ncnc2c1ncn2CCC(O)[C]12[CH]3[CH]4[CH]5[CH]1[Mn]4532[P](c1ccccc1)(c1ccccc1)c1ccccc1.[C-]#[O+].[C-]#[O+] (racemic) [Compound 5]
>256 µg/mL

What value of MIC, S. aureus ATCC 29213 (MSSA) has been reported for the following molecule? CCC(=O)[C]12[CH]3[CH]4[CH]5[CH]1[Mn]4532.[C-]#[O+].[C-]#[O+].[C-]#[O+] (stereo not shown) [Compound 7, propionylocymantrene]
>512 µg/mL

What value of MIC, S. aureus ATCC 29213 (MSSA) has been reported for the following molecule? COC(CCn1cc(F)c(=O)n(C)c1=O)[C]12[CH]3[CH]4[CH]5[CH]1[Mn]4532.[C-]#[O+].[C-]#[O+].[C-]#[O+] (racemic) [Compound 4]
>512 µg/mL

What value of MIC, S. aureus ATCC 29213 (MSSA) has been reported for the following molecule? O=c1[nH]c(=O)n(CCC(O)[C]23[CH]4[CH]5[CH]6[CH]2[Mn]5643)cc1F.[C-]#[O+].[C-]#[O+].[C-]#[O+] (racemic) [Compound 2]
>512 µg/mL
